system: BMPR2; details: concentration: 1 μM, replicates: in singlicate; n = 1;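 further: KINOMEscan kinase panel screen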
Each entry gets Not met if its %Inh stays under 8%, and Met if its %Inh is 8% or above.

Examples from the recorded data:
{"smiles": "CN(C)c1ncnc2nc[nH]c12", "target-desc": "BMPR2", "label-class": "Met"}
{"smiles": "CC(=O)Nc1cn2nc(Oc3cccc(NC(=O)c4cccc(C(F)(F)F)c4)c3)ccc2n1", "target-desc": "BMPR2", "label-class": "Not met"}

Check this compound for %Inh at or above 8%: CN(C)CCNS(=O)(=O)c1ccc(-c2ccnc3[nH]ccc23)cc1
Not met

Also, CCn1cnc2c(NCc3ccccc3)ncnc21 please.
Met

Also, Cc1cccc(Nc2nc(N[C@H]3CCCC[C@H]3N)ncc2C(N)=O)c1.Cl please.
Met

Also, Fc1cc(Cl)ccc1Nc1ccnc2cc(-c3ccc(CN4CCSCC4)o3)ccc12 please.
Not met

Also, O=C(Nc1n[nH]c2cc(-c3cccs3)ccc12)C1CC1 please.
Met

Also, Nc1cccc(-c2ccc3c(N)n[nH]c3c2)c1 please.
Not met

---

tested on: CDC2L5; construct: gene CDK13; conditions: concentration: 1 μM, replicates: in singlicate; n = 1
So I've got a bunch of compounds here, and I need their %Inh values.
Numbers only, in %.

Dear colleague, could you please provide %Inh for the compounds listed below?
1. Cc1ccc(C)c(NC(=O)Nc2ccc(C)c(-c3ccc(C(=O)Nc4ccncc4)cc3)c2)c1 [GSK1398473]
2. Cc1ccccc1CC(=O)N1CCc2cc(-c3cn(C)c4ncnc(N)c34)ccc21 [GSK2603346]
3. CN(c1ccc(F)c(NC(=O)c2cccc(OC(C)(C)C#N)c2Cl)c1)c1ccc2nc(NC(=O)C3CC3)sc2n1

1. 0
2. 0
3. 0

---

system: DYRK2; details: concentration: 1 μM, replicates: in singlicate; n = 1
So I've got a bunch of compounds here, and I need their %Inh values.
Answers are plain numbers, in %.

{"compound": "COC(=O)Nc1nc2cc(Oc3ccc(NC(=O)Nc4cccc(SC)c4)cc3)ccc2[nH]1.Cl", "target-desc": "DYRK2", "numeric-value": 7}
{"compound": "Cc1ccc(NC(=O)c2ccnc(N3CCCCC3)c2)cc1-c1ccc(C(=O)NCC2CC2)cc1", "target-desc": "DYRK2", "numeric-value": 2}
{"compound": "c1ccc(Oc2ccc(Nc3ccnc4cc(-c5ccc(CN6CCCCC6)o5)ccc34)cc2)nc1", "target-desc": "DYRK2", "numeric-value": 10}
{"compound": "COC(=O)Nc1nc2ccc(Oc3ccc(NC(=O)Nc4cc(C(F)(F)F)ccc4F)cc3)cc2[nH]1.Cl", "target-desc": "DYRK2", "numeric-value": 13}
{"compound": "CCn1c(-c2nonc2N)nc2c(-c3ccccc3)ncc(OCCCN)c21.O=C(O)C(F)(F)F.O=C(O)C(F)(F)F", "target-desc": "DYRK2", "numeric-value": 14}

Dear colleague, could you please provide %Inh for the compounds listed below?
1. CC(C)(C)c1ccc(C(=O)Nc2cn3cc(-n4ccnc4)ccc3n2)cc1
2. COc1cccc2c(-c3ccncc3)c(-c3ccc(F)cc3)nn12
3. CC(C)c1nc(-c2cccc(NS(=O)(=O)c3c(F)cccc3F)c2)c(-c2ccnc(Nc3ccc(N4CCOCC4)nc3)n2)s1.Cl
4. COc1cc(Nc2ccnc3cc(-c4ccncc4)ccc23)cc(OC)c1OC.Cl
5. CC(C)NCC(Cc1ccccc1)NC(=O)c1cc(Br)c(-c2ccnc3[nH]ccc23)s1.Cl.Cl (centres unmarked)

1: 67; 2: 0; 3: 18; 4: 4; 5: 33

Dear colleague, could you please provide %Inh for the compounds listed below?
1. COc1cc(Nc2nccc(N3CCC(NS(=O)(=O)c4ccc(NC(C)=O)cc4)CC3)n2)cc(OC)c1OC
2. Cc1ccc(NC(=O)c2cccc(N3CCCCC3)c2)cc1-c1ccc(C(=O)NCC2CC2)cc1
3. Cn1cc(-c2ccc3c(c2)CCN3C(=O)Cc2cc(F)cc(C(F)(F)F)c2)c2c(N)ncnc21
4. N#CC1(c2cccc(C(=O)Nc3cccc(Oc4ccc5nc(NC(=O)C6CC6)sc5n4)c3)c2)CC1

1: 10; 2: 18; 3: 4; 4: 0

Dear colleague, could you please provide %Inh for the compounds listed below?
1. CNc1nccc(-c2ccc3c(N)n[nH]c3c2)n1
2. NCCC(NC(=O)c1cc(Br)c(-c2ccnc3[nH]ccc23)s1)c1ccccc1.O=C(O)C(F)(F)F.O=C(O)C(F)(F)F (centres unmarked)
3. CS(=O)(=O)c1cccc(CNc2nc(Nc3ccc4c(c3)CCC(=O)N4)ncc2C(F)(F)F)c1
4. Cc1ccc(O)cc1Nc1ccnc2cc(-c3ccc(CN4CCCCC4)o3)ccc12
5. Cl.O=C(Nc1ccc(Oc2ccc3[nH]c(NC(=O)c4ccco4)nc3c2)cc1)Nc1cc(C(F)(F)F)ccc1F
6. CCn1cnc2c(NCc3ccccc3)ncnc21

90
57
0
2
0
15

Dear colleague, could you please provide %Inh for the compounds listed below?
1. CCOc1nccc(-c2c(-c3ccc(F)cc3)ncn2C2CCNCC2)n1
2. O=C1NC(=O)C(c2ccccc2Cl)=C1Nc1cccc(Cl)c1
3. COc1cccc(NC(=O)NCCNc2ccnc(Nc3ccc(F)cc3)n2)c1

1. 6
2. 23
3. 0

---

system: LOK; construct: gene STK10; details: concentration: 1 μM, replicates: in singlicate; n = 1
So I've got a bunch of molecules here, and I need their %Inh values.
Numbers only, in %.

{"molecule": "Cc1ccc(NC(=O)c2ccnc(N3CCCCC3)c2)cc1-c1ccc(C(=O)NCC2CC2)cc1", "%Inh / %": 79}
{"molecule": "COc1cc(Nc2nccc(N3CCC(NC(=O)Nc4ccc5c(c4)OCO5)C3)n2)cc(OC)c1OC (centres unmarked)", "%Inh / %": 0}

Dear colleague, could you please provide %Inh for the molecules listed below?
1. COc1cccc(C2=C(Nc3cccc(O)c3)C(=O)NC2=O)c1
2. Cl.O=C(Nc1ccc(Oc2ccc3[nH]c(NC(=O)c4ccco4)nc3c2)cc1)Nc1cc(C(F)(F)F)ccc1F
3. O=C(Nc1c(F)cccc1F)c1cc(C(=O)c2ccccc2F)c[nH]1
4. CN(C)c1ncnc2nc[nH]c12
5. CN(c1ccc2c(c1)nc(NCc1ccccc1)n2C)c1ccnc(Nc2ccc(CS(C)(=O)=O)cc2)n1.Cl
6. COc1cc(Nc2ccnc3cc(-c4ccncc4)ccc23)cc(OC)c1OC.Cl

[0, 99.7, 28, 2, 99.5, 96.9]

---

system: MLK3; details: concentration: 1 μM, replicates: in singlicate; n = 1
parameter-measured: %Inh (%)
One number for each entry, in %.

Solved entries (count: 2):
{"smiles": "CCn1cnc2c(NCc3ccccc3)ncnc21", "target-desc": "MLK3", "%Inh, %": 0}
{"smiles": "CN(C)c1ncnc2nc[nH]c12", "target-desc": "MLK3", "%Inh, %": 0}

Dear colleague, could you please provide %Inh for the molecules listed below?
1. Cc1nn2c(=O)cc(N3CCO[C@H](C)C3)nc2n1Cc1cccc(Cl)c1Cl
2. O=C(Nc1n[nH]c2nc(-c3ccccc3O)ccc12)C1CC1
3. COc1cccc(NC(=O)NCCNc2ccnc(Nc3ccc(F)cc3)n2)c1

1. 9
2. 0
3. 0

---

So I've got a bunch of compounds here, and I need their %Inh values.
system: BMPR1A; conditions: concentration: 1 μM, replicates: in singlicate; n = 1
Give bare numbers, in %.

Solved entries (count: 3):
{"compound": "CN(C)c1ncnc2nc[nH]c12 [SKF-31736]", "target-desc": "BMPR1A", "uom": "%", "numeric-value": 0}
{"compound": "CN1CCN(Cc2ccc(NC(=O)Nc3ccc(N(C)c4ccnc(Nc5ccc(CS(C)(=O)=O)cc5)n4)cc3)cc2)CC1.Cl [GW827654]", "target-desc": "BMPR1A", "uom": "%", "numeric-value": 44}
{"compound": "Cc1ccc(Nc2ccnc(Nc3ccc(C)c(F)c3)n2)cc1O.Cl [GW582868]", "target-desc": "BMPR1A", "uom": "%", "numeric-value": 7}

Moving on to another compound below.
Query %Inh on BMPR1A for Cl.O=C(Nc1ccc(Oc2ccc3[nH]c(NC(=O)c4ccco4)nc3c2)cc1)Nc1cc(C(F)(F)F)ccc1F [GW683134]
0

---

system: PRKX; conditions: concentration: 1 μM, replicates: in singlicate; n = 1
parameter-measured: %Inh (%)
Numbers only, in %.

Solved entries (count: 3):
{"smiles": "CC(C)c1nc(-c2cccc(NS(=O)(=O)c3c(F)cccc3F)c2)c(-c2ccnc(Nc3ccc(N4CCOCC4)nc3)n2)s1.Cl", "target-desc": "PRKX", "uom": "%", "numeric-value": 7}
{"smiles": "COc1ccc(C)c(Nc2ccnc(Nc3ccc(-c4cnc[nH]4)cc3)n2)c1.Cl", "target-desc": "PRKX", "uom": "%", "numeric-value": 0}
{"smiles": "Cl.O=C(Nc1ccc(Oc2ccc3[nH]c(NC(=O)c4ccco4)nc3c2)cc1)Nc1cc(C(F)(F)F)ccc1F", "target-desc": "PRKX", "uom": "%", "numeric-value": 20}

What %Inh value was documented for this compound, CN(C)CCOc1ccc(-c2cc(-c3ccc(Cl)c(O)c3)c(-c3ccncc3)[nH]2)cc1.Cl.Cl ?
17
